The reported measurements were obtained from patent US9873702B2.

melting point reference
ENDPOINT_LABEL: melting point (°C)

                                   compound  reported_measurement
0  c1ccc(C(CNc2nc(-n3cnc4cncnc43)nc3ccccc23)c2ccccc2)cc1                   264
1  c1ccc(C(CNc2nc(-c3ccc4[nH]cnc4c3)nc3ccccc23)c2ccccc2)cc1                   142
2  CC(C)(C)OC(=O)N1CCCc2ccc(-c3nc(NCC(c4ccccc4)c4ccccc4)c4ccccc4n3)cc21                    89
3  CN(C)Cc1c[nH]c2ccc(-c3nc(NCC(c4ccccc4)c4ccccc4)c4ccccc4n3)cc12                   182
4  Cn1cc(-c2nc(NCC(c3ccccc3)c3ccccc3)c3ccccc3n2)cn1                   211
5  c1ccc(C(Nc2nc(-c3ccc4nccn4c3)nc3ccccc23)c2ccccc2)cc1                   258
6  Nc1ncc(-c2nc(NCC(c3ccccc3)c3ccncc3)c3ccccc3n2)cn1 (stereo not drawn)                   219
7  c1ccc(C(CNc2nc(-c3cc4ccccc4[nH]3)nc3ccccc23)c2ccccc2)cc1                    93
